# System: MCF7
# assayRemarks: Growth inhibition of human MCF7 cells
# Type: functional
// reported GI50 for each item listed
Note: a bare number is incomplete; add the unit.

Previously resolved entries follow.
| compound | reportedResult |
| --- | --- |
| CCCN1CCc2c(c3cc(OC)c(OC)cc3c3cc(OC)c(OC)cc23)C1 | 510 nM |
| COc1cc2c3c(c4cc(OC)c(OC)cc4c2cc1OC)CN1CCCCC1C3 (configuration not stated) | 110 nM |
| COc1cc2c3c(c4cc(OC)c(OC)cc4c2cc1OC)CN(CCC1OCCO1)CC3 | 4600 nM |

Query: Query (compound): COc1cc2c3c(c4cc(OC)c(OC)cc4c2cc1OC)CN(CCCN)CC3 ; field requested: GI50
Response: 15300 nM

Query: Query (compound): CCN1CCc2c(c3cc(OC)c(OC)cc3c3cc(OC)ccc23)C1 ; field requested: GI50
Response: 370 nM

Query: Query (compound): CCCCN1CCc2c(c3cc(OC)c(OC)cc3c3cc(OC)c(OC)cc23)C1 ; field requested: GI50
Response: 1970 nM

Query: Query (compound): CCN1CCc2c(c3cc(OC)c(OC)cc3c3c(OC)c(OC)c(OC)cc23)C1 ; field requested: GI50
Response: 1180 nM
